Hey, just so you know, these numbers are from paper PMC6597265.

targetOrSystem: recombinant rat homomeric GluK2 (Rattus norvegicus)
assayDetails: Binding affinity at cloned homomeric GluK2 expressed in sf9 cells, [3H]-KA
conditionSet: Ki GluK2

>  <molecule>
Cl.O=C(O)CCC(C(=O)O)[C@@H]1CCN[C@H]1C(=O)O (relative stereo)

>  <Ki>
> 100 µM

$$$$
>  <molecule>
Cl.O=C(O)C(Cc1c[nH]nn1)[C@@H]1CCN[C@H]1C(=O)O (some centres unmarked) [3p-d1]

>  <Ki>
> 100 µM

$$$$
>  <molecule>
Cl.O=C(O)CC(C(=O)O)[C@@H]1CCN[C@H]1C(=O)O (relative stereo)

>  <Ki>
33 µM

$$$$
>  <molecule>
Cl.O=C(O)C(Cc1ccccc1)[C@@H]1CCN[C@H]1C(=O)O (relative stereo)

>  <Ki>
67 µM

$$$$
>  <molecule>
CC(C)C(C(=O)O)[C@@H]1CCN[C@H]1C(=O)O.Cl (relative stereo)

>  <Ki>
> 100 µM

$$$$
>  <molecule>
Cl.O=C(O)[C@H]1NCC[C@@H]1[C@@H](C(=O)O)c1ccccc1

>  <Ki>
> 100 µM

$$$$
>  <molecule>
Cl.O=C(O)C(Cc1c[nH]nn1)[C@@H]1CCN[C@H]1C(=O)O (mixture of isomers) [3p]

>  <Ki>
55 µM

$$$$
>  <molecule>
Cl.O=C(O)[C@H]1NCC[C@@H]1[C@H](C(=O)O)c1ccccc1

>  <Ki>
> 100 µM

$$$$
>  <molecule>
Cl.O=C(O)C(Cc1c[nH]nn1)[C@@H]1CCN[C@H]1C(=O)O (some centres unmarked) [3p-d2]

>  <Ki>
43 µM

$$$$
>  <molecule>
Cl.O=C(O)C(CCCO)[C@@H]1CCN[C@H]1C(=O)O (relative stereo)

>  <Ki>
> 100 µM

$$$$
>  <molecule>
Cl.O=C(O)C(CCc1ccccc1)[C@@H]1CCN[C@H]1C(=O)O (relative stereo)

>  <Ki>
> 100 µM

$$$$

---

targetOrSystem: recombinant rat homomeric GluK2 (Rattus norvegicus, UniProt P42260)
Sequence (P42260 32-908): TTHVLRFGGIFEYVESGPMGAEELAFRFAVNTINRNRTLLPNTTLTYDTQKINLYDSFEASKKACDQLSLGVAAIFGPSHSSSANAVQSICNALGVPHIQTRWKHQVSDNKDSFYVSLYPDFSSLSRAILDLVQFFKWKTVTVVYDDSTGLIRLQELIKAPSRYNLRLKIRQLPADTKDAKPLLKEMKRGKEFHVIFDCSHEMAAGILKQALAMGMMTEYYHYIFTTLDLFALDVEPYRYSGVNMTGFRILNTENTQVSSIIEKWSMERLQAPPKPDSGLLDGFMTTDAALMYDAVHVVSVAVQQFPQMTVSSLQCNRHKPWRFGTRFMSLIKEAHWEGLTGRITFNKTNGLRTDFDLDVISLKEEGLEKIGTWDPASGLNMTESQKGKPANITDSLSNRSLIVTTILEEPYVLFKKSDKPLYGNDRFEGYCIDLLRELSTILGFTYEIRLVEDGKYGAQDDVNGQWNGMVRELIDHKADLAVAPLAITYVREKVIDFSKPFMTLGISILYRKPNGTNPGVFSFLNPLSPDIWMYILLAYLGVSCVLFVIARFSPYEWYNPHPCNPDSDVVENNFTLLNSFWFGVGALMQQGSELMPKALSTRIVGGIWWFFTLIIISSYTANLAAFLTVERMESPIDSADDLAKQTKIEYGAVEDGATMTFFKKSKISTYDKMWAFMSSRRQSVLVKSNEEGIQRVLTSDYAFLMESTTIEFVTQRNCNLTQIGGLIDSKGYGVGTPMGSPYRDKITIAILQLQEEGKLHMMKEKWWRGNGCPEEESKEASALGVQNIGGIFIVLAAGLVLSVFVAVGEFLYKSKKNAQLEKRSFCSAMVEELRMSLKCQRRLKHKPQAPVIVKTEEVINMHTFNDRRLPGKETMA
assayDetails: Binding affinity at cloned homomeric GluK2 expressed in sf9 cells, [3H]-KA
conditionSet: Ki GluK2, cloned homomeric receptor; mean ± SEM, at least three experiments
pKi: −log10 of the molar value.

>  <molecule>
O=C([O-])C(CCO)[C@@H]1CCN[C@H]1C(=O)[O-].[Na+].[Na+] (relative stereo)

>  <pKi>
< 4.00

$$$$

---

Quick reference: IC50 of the listed items.
targetOrSystem: human EAAT3 (Homo sapiens, UniProt P43005)
assayDetails: [3H]-D-Asp uptake assay, EAAT3 stably expressed in HEK293 cells
Type: cell-based
readoutLabel: IC50

>  <compound>
Cl.O=C(O)CCC(C(=O)O)[C@@H]1CCN[C@H]1C(=O)O (relative stereo) [3m]

>  <valueMeasured>
> 300 µM

$$$$
>  <compound>
Cl.O=C(O)CC(C(=O)O)[C@@H]1CCN[C@H]1C(=O)O (relative stereo) [3l]

>  <valueMeasured>
> 1000 µM

$$$$
>  <compound>
Cl.O=C(O)C(CCCO)[C@@H]1CCN[C@H]1C(=O)O (relative stereo) [3o]

>  <valueMeasured>
> 300 µM

$$$$
>  <compound>
O=C([O-])C(CCO)[C@@H]1CCN[C@H]1C(=O)[O-].[Na+].[Na+] (relative stereo) [3n]

>  <valueMeasured>
> 300 µM

$$$$

---

targetOrSystem: GluN1/GluN2C (Rattus norvegicus, UniProt P35439+Q00961)
Sequence (Q00961 20-1237, other chains not shown): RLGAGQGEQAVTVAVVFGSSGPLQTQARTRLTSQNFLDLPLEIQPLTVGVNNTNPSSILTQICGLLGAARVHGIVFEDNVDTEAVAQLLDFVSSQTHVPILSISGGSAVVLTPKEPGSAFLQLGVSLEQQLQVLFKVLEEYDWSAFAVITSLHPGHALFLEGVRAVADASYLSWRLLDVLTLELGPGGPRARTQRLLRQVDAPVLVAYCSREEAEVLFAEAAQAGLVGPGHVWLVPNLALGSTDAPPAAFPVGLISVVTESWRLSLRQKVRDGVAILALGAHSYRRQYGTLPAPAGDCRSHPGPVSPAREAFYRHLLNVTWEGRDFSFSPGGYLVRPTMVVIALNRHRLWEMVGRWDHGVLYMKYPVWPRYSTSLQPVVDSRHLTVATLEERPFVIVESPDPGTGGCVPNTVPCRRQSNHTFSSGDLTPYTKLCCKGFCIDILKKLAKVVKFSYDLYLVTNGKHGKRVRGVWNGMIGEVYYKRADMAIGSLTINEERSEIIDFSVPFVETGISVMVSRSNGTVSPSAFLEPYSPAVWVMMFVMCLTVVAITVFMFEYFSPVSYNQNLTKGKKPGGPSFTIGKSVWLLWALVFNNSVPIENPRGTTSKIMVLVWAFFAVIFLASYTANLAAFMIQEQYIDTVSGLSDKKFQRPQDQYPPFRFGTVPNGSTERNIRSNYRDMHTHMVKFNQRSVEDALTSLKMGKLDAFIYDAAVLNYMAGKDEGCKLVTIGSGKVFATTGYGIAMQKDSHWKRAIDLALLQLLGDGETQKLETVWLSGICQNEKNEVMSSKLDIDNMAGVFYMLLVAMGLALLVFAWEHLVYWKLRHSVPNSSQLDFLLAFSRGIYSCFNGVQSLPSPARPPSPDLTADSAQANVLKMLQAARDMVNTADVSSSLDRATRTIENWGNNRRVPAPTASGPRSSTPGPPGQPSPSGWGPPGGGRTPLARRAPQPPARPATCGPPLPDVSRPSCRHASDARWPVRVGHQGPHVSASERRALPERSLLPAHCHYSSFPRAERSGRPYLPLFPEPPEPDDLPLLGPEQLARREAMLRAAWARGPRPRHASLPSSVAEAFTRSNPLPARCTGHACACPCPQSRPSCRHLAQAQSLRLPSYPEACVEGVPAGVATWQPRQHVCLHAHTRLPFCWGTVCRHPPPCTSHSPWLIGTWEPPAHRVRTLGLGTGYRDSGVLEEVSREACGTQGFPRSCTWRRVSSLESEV
pKi: −log10 of the molar value.
readoutLabel: pKi

>  <molecule>
Cl.O=C(O)C(Cc1nnn[nH]1)[C@@H]1CCN[C@H]1C(=O)O (relative stereo) [3q-s3,4]

>  <valueMeasured>
4.92

$$$$

---

targetOrSystem: recombinant rat homomeric GluK3 (Rattus norvegicus)
Sequence (P42264 32-919): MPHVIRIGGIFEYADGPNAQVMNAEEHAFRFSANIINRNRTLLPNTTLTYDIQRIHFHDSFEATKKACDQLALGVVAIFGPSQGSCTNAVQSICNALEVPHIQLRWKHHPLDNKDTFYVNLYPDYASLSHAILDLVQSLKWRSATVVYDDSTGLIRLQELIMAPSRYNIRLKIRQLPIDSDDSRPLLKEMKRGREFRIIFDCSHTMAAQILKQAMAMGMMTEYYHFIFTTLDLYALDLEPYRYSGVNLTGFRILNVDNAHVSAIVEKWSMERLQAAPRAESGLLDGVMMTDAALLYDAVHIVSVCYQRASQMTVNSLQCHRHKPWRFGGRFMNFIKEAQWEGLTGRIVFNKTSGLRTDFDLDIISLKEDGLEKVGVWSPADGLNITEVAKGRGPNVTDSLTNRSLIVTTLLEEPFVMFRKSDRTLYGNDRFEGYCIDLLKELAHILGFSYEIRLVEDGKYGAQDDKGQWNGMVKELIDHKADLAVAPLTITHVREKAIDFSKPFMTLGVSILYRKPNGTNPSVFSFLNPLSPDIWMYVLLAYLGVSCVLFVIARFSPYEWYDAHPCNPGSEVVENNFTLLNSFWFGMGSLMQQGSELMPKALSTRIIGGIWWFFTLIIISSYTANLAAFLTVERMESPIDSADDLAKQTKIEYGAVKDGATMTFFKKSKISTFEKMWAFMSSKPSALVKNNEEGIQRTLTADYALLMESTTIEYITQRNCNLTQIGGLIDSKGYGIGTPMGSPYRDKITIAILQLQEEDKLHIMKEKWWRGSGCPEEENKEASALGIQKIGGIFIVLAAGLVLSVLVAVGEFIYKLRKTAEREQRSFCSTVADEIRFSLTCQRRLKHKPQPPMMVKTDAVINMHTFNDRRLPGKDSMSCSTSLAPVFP
assayDetails: Binding affinity at cloned homomeric GluK3 expressed in sf9 cells, [3H]-KA
conditionSet: ratio of Ki values at cloned homomeric receptors
# note: boundary value 7 maps to class 0; GluK1/K3 (GluK1/GluK3 Ki selectivity ratio) below it maps to class 1

>  <molecule>
Cl.O=C(O)C[C@H]1CCN[C@@H]1C(=O)O

>  <targetOrSystem>
recombinant rat homomeric GluK3 (Rattus norvegicus)

>  <assignedCategory>
class 1

$$$$
>  <molecule>
Cl.O=C(O)C(Cc1ccccc1)[C@@H]1CCN[C@H]1C(=O)O (relative stereo)

>  <targetOrSystem>
recombinant rat homomeric GluK3 (Rattus norvegicus)

>  <assignedCategory>
class 0

$$$$
>  <molecule>
Cl.O=C(O)C(Cc1c[nH]nn1)[C@@H]1CCN[C@H]1C(=O)O (mixture of isomers)

>  <targetOrSystem>
recombinant rat homomeric GluK3 (Rattus norvegicus)

>  <assignedCategory>
class 1

$$$$
>  <molecule>
CC[C@H](C(=O)O)[C@H]1CCN[C@@H]1C(=O)O.Cl

>  <targetOrSystem>
recombinant rat homomeric GluK3 (Rattus norvegicus)

>  <assignedCategory>
class 1

$$$$

---

targetOrSystem: recombinant rat homomeric GluK2 (Rattus norvegicus)
assayDetails: Binding affinity at cloned homomeric GluK2 expressed in sf9 cells, [3H]-KA
readoutLabel: Ki

>  <compound>
CC[C@H](C(=O)O)[C@H]1CCN[C@@H]1C(=O)O.Cl

>  <valueMeasured>
> 100 µM

$$$$
>  <compound>
CC[C@@H](C(=O)O)[C@H]1CCN[C@@H]1C(=O)O.Cl

>  <valueMeasured>
70 µM

$$$$
>  <compound>
COC(C(=O)O)[C@@H]1CCN[C@H]1C(=O)O.Cl (relative stereo) [3j-d1]

>  <valueMeasured>
> 100 µM

$$$$
>  <compound>
Cl.Cl.NC(C(=O)O)[C@@H]1CCN[C@H]1C(=O)O (relative stereo)

>  <valueMeasured>
> 100 µM

$$$$

---

targetOrSystem: human EAAT3 (Homo sapiens)
Sequence (P43005 1-524): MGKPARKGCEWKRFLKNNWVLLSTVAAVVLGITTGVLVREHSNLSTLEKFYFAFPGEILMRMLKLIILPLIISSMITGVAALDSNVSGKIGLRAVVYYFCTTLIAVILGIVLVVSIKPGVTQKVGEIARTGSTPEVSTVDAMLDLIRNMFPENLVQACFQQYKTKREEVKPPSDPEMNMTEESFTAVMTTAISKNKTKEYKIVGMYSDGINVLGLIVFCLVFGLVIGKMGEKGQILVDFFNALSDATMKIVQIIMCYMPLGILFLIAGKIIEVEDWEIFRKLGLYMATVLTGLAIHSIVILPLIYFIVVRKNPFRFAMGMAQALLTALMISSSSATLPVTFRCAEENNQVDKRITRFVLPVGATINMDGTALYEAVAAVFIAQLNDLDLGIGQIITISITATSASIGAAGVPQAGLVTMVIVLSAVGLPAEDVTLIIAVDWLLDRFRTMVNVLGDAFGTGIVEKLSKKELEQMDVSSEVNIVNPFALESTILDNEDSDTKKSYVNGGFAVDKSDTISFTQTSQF
assayDetails: [3H]-D-Asp uptake assay, EAAT3 stably expressed in HEK293 cells
Format: cell-based

>  <molecule>
Cl.O=C(O)C(Cc1c[nH]nn1)[C@@H]1CCN[C@H]1C(=O)O (mixture of isomers) [3p]

>  <IC50>
> 300 µM

$$$$
>  <molecule>
CC[C@@H](C(=O)O)[C@H]1CCN[C@@H]1C(=O)O.Cl

>  <IC50>
> 300 µM

$$$$
>  <molecule>
Cl.O=C(O)C(Cc1c[nH]nn1)[C@@H]1CCN[C@H]1C(=O)O (some centres unmarked) [3p-d1]

>  <IC50>
> 300 µM

$$$$
>  <molecule>
Cl.O=C(O)C(CCc1ccccc1)[C@@H]1CCN[C@H]1C(=O)O (relative stereo)

>  <IC50>
> 300 µM

$$$$
>  <molecule>
CC[C@H](C(=O)O)[C@H]1CCN[C@@H]1C(=O)O.Cl

>  <IC50>
~50 µM

$$$$

---

targetOrSystem: native NMDA receptors
Type: binding
conditionSet: native iGluRs, rat synaptosomes
Listed next: entries and their corresponding pKi NMDA (mean ± SEM, in brackets).

>  <compound>
Cl.O=C(O)C(Cc1nnn[nH]1)[C@@H]1CCN[C@H]1C(=O)O (relative stereo)

>  <pKi NMDA (mean ± SEM, in brackets)>
6.61

$$$$
>  <compound>
O=C([O-])C(CCO)[C@@H]1CCN[C@H]1C(=O)[O-].[Na+].[Na+] (relative stereo)

>  <pKi NMDA (mean ± SEM, in brackets)>
4.23

$$$$
>  <compound>
Cl.Cl.NC(C(=O)O)[C@@H]1CCN[C@H]1C(=O)O (relative stereo)

>  <pKi NMDA (mean ± SEM, in brackets)>
5.06

$$$$
>  <compound>
Cl.O=C(O)CC(C(=O)O)[C@@H]1CCN[C@H]1C(=O)O (relative stereo)

>  <pKi NMDA (mean ± SEM, in brackets)>
5.58

$$$$
>  <compound>
CC[C@H](C(=O)O)[C@H]1CCN[C@@H]1C(=O)O.Cl

>  <pKi NMDA (mean ± SEM, in brackets)>
4.88

$$$$
>  <compound>
Cl.O=C(O)C(Cc1c[nH]nn1)[C@@H]1CCN[C@H]1C(=O)O (stereo partly shown) [3p-d2]

>  <pKi NMDA (mean ± SEM, in brackets)>
4.30

$$$$
>  <compound>
Cl.O=C(O)CCC(C(=O)O)[C@@H]1CCN[C@H]1C(=O)O (relative stereo)

>  <pKi NMDA (mean ± SEM, in brackets)>
4.28

$$$$
